Target: Protein kinase C epsilon type (Homo sapiens, UniProt Q02156)
Sequence (Q02156 whole entry): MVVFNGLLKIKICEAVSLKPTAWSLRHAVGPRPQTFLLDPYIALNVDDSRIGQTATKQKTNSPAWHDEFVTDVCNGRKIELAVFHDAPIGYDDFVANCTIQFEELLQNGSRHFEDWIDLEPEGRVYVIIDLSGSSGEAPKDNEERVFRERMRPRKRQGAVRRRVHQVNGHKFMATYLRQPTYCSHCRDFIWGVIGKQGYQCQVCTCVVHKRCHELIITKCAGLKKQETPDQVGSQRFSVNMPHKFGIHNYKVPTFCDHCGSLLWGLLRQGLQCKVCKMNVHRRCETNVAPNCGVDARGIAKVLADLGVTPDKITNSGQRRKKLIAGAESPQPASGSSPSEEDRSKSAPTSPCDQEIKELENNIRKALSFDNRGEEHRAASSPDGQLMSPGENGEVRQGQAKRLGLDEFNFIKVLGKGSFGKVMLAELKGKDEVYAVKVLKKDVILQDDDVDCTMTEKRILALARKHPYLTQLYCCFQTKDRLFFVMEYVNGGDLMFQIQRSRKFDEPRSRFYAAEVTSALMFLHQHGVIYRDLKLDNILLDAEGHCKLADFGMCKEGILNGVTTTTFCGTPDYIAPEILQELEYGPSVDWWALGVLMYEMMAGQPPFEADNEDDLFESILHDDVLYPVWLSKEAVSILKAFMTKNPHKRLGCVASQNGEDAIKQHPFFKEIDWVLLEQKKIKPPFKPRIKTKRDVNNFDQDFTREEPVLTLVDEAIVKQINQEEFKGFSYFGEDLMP
ENDPOINT_NAME: IC50 (nM)
Please respond with the number in nM and leave the unit unwritten.

input: Provide Protein kinase C epsilon type (Homo sapiens, UniProt Q02156) IC50 reading for Cn1cc(Nc2ncc(Br)c(N[C@H]3[C@@H](C(N)=O)[C@@H]4C=C[C@H]3C4)n2)cn1 .
output: 82
